- Test details: qHTS assay to identify small molecule antagonists of the constitutive androstane receptor (CAR) signaling pathway - cell viability counter screen (AID 1224837); note: nearly all actives have a fitted effect of over 45% in size
- Experimental conditions: HepG2-CYP2B6-hCAR viability, CellTiter-Fluor, 23 h, co-treated with 50 nM CITCO; series mostly up to 92.4 µM
- Description: National Center for Advancing Translational Sciences [NCATS] NIH Chemical Genomics Center [NCGC] U.S. Environmental Protection Agency [EPA] National Institutes of Environmental Health Sciences [NIEHS] National Toxicology Program [NTP] […] A double-stable (hCAR and CYP2B6-2.2kb) transfected cell line, derived from human hepatoma (HepG2) cells, was utilized for the duration of the quantitative high-throughput screens. […] The fluorescence intensity in the plates was then measured using a ViewLux plate reader.
Inconclusive results are not listed. Active and inactive are the calls of the source. Calls come from the whole dose curve; as a rule, active = well fitted cell-killing curve with a large enough effect in the repeat runs; inconclusive = weak or mixed curves, or effect the other way; inactive = flat fitted curve, though single readings scatter.

{"Compound": "CCCCCCCCCCC(CO)CCCCCCCC (stereo not drawn)", "outcome": "inactive"}
{"Compound": "CCCOCCO", "outcome": "inactive"}
{"Compound": "Nc1ccc(N)c(Cl)c1", "outcome": "inactive"}
{"Compound": "COCCOCCOCCO", "outcome": "inactive"}
{"Compound": "O=C(O)c1cc(=O)[nH]c(=O)[nH]1", "outcome": "inactive"}
{"Compound": "CN(C)/N=N/c1nc[nH]c1C(N)=O", "outcome": "inactive"}
{"Compound": "[O-]/[N+](=N\\O)c1ccccc1", "outcome": "inactive"}
{"Compound": "CC(=O)Oc1ccc(C(c2ccc(OC(C)=O)cc2)c2ccccn2)cc1", "outcome": "inactive"}
{"Compound": "c1ccc2ncccc2c1", "outcome": "inactive"}
{"Compound": "CC(C)[C@@H]1CC[C@@H](C)CC1=O", "outcome": "inactive"}
{"Compound": "Nc1cc(Cl)c(N)c(Cl)c1", "outcome": "inactive"}
{"Compound": "CC[C@]12CCCN3CCc4c(n(c5ccccc45)[C@@](O)(C(=O)OC)C1)[C@@H]32", "outcome": "inactive"}
{"Compound": "CC(=O)[C@@]1(O)CC[C@H]2[C@@H]3C[C@H](C)C4=CC(=O)C=C[C@]4(C)[C@@]3(F)[C@@H](O)C[C@@]21C", "outcome": "inactive"}

---

- Test details: qHTS assay for identifying genotoxic compounds that show differential cytotoxicity against isogenic chicken DT40 cell lines with known DNA damage response pathways - Rad54/Ku70 mutant cell line (AID 743015); note: nearly all actives have a fitted effect of over 60% in size
- Experimental conditions: DT40 Rad54/Ku70 mutant viability, CellTiter-Glo, 40 h; series mostly up to 66.8 µM
Results filed as inconclusive are left out. Activity calls are given as the source filed them. The call rests on the fitted dose curve; in most records, active means well fitted cell-killing curve with a large enough effect in the repeat runs; inconclusive means weak or mixed curves; inactive means no such curve, though single readings can be large or run the other way.
Labels: y (active), n (inactive)

{"Molecule": "CC1=CC(C)(C)Nc2ccccc21", "Assigned label": "n"}
{"Molecule": "COC(=O)c1ccc(C)cc1", "Assigned label": "n"}
{"Molecule": "NC[C@H](O)c1ccc(O)c(O)c1", "Assigned label": "y"}
{"Molecule": "Clc1ccc(Sc2cc(Cl)c(Cl)cc2Cl)cc1", "Assigned label": "n"}
{"Molecule": "c1ccc2c(c1)[nH]c1ccccc12", "Assigned label": "n"}
{"Molecule": "COCCOCCOCCO", "Assigned label": "n"}
{"Molecule": "Cc1ccc(S(=O)(=O)NCl)cc1", "Assigned label": "n"}
{"Molecule": "CC(C)[N+](C)(CCOC(=O)C1c2ccccc2Oc2ccccc21)C(C)C", "Assigned label": "n"}
{"Molecule": "CC1(C)C(C=C(Cl)Cl)C1C(=O)OCc1cccc(Oc2ccccc2)c1 (stereo not drawn)", "Assigned label": "n"}
{"Molecule": "CC(=O)Nc1ccc2c(c1)Cc1cc(NC(C)=O)ccc1-2", "Assigned label": "n"}
{"Molecule": "c1ccc2c(c1)ccc1ncccc12", "Assigned label": "n"}
{"Molecule": "C[N+](C)(C)CCO", "Assigned label": "n"}
{"Molecule": "Cc1ccc2c(c1)C(=O)OC2=O", "Assigned label": "n"}
{"Molecule": "ClC/C=C/CCl", "Assigned label": "n"}
{"Molecule": "Cc1ccc(N)c([N+](=O)[O-])c1", "Assigned label": "n"}
{"Molecule": "C1CN(SSN2CCOCC2)CCO1", "Assigned label": "y"}
{"Molecule": "O=C1CCc2ccccc2O1", "Assigned label": "n"}
{"Molecule": "C=CCNCC=C", "Assigned label": "n"}
{"Molecule": "CCCCCCCCCCCCO", "Assigned label": "n"}
{"Molecule": "FC(F)(F)C(Cl)Br (stereo not drawn)", "Assigned label": "n"}
{"Molecule": "CC(=O)O[C@]1(C(C)=O)CC[C@H]2[C@@H]3C=C(Cl)C4=CC(=O)CC[C@]4(C)[C@H]3CC[C@@]21C", "Assigned label": "y"}
{"Molecule": "Oc1c(Cl)ccc(Cl)c1Cl", "Assigned label": "n"}
{"Molecule": "Nc1cc([N+](=O)[O-])ccc1C(=O)O", "Assigned label": "n"}
{"Molecule": "CN(C)/N=N/c1nc[nH]c1C(N)=O", "Assigned label": "y"}
{"Molecule": "CC1(C)O[C@@H]2C[C@H]3[C@@H]4C[C@H](F)C5=CC(=O)C=C[C@]5(C)[C@@]4(F)[C@@H](O)C[C@]3(C)[C@]2(C(=O)CO)O1", "Assigned label": "n"}
{"Molecule": "Cc1ccc(S(=O)(=O)O)cc1C", "Assigned label": "n"}
{"Molecule": "NCCS(=O)(=O)O", "Assigned label": "n"}
{"Molecule": "CC(C)[C@@H]1CC[C@@H](C)CC1=O", "Assigned label": "n"}
